- test_summary: Study SI07004: silodosin pharmacokinetics after seven daily doses of 4 mg or 8 mg in healthy male subjects
- Type: in vivo, human
- experimental_context: male, human, plasma, 4 mg, after 7 days of dosing; read-out: t½, median (converted)
result_type: half-life
Units required after the number.

Enquiry: Query: half-life; subject: C[C@H](Cc1cc2c(c(C(N)=O)c1)N(CCCO)CC2)NCCOc1ccccc1OCC(F)(F)F [silodosin]
Return: 14.2 h

----------
- test_summary: Study SI07004: silodosin pharmacokinetics after seven daily doses of 4 mg or 8 mg in healthy male subjects
- Assay type: in vivo, human
- experimental_context: male, human, plasma, 4 mg, after 7 days of dosing; read-out: Cmax, median
result_type: Cmax
Units required after the number.

Enquiry: Query: Cmax; subject: C[C@H](Cc1cc2c(c(C(N)=O)c1)N(CCCO)CC2)NCCOc1ccccc1OCC(F)(F)F [silodosin]
Return: 26.1 ng/mL

----------
- test_summary: Study SI06004: plasma pharmacokinetics of silodosin and metabolites, 8 mg once daily for 7 days
- Format: in vivo, human
- experimental_context: human, plasma, oral, 8 mg, 8 mg once daily, immediate-release; mean (SD); read-out: Tmax
result_type: Tmax

Enquiry: Query: Tmax; subject: C[C@H](Cc1cc2c(c(C(N)=O)c1)N(CCCO)CC2)NCCOc1ccccc1OCC(F)(F)F [silodosin]
Return: ~2.6 h

----------
- test_summary: Study SI06004: plasma pharmacokinetics of silodosin and metabolites, 8 mg once daily for 7 days
- Assay type: in vivo, human
- experimental_context: human, plasma, oral; 8 mg once daily for 7 days; mean ± SD
- Protocol: FIG. 2 depicts the mean steady-state silodosin plasma concentration versus time profile in fed target-aged subjects after administering 8 mg silodosin QD (from Study SI06004). This is illustrated in Table 1 and FIG. 2. Study SI06004 assessed the area under the plasma concentration time curve for silodosin and four of its metabolites, as well as safety and tolerability, following administration of 8 mg once daily for 7 days.
result_type: half-life (h)
Give bare numbers, in h.

Enquiry: Query: half-life; subject: C[C@H](Cc1cc2c(c(C(N)=O)c1)N(CCCO)CC2)NCCOc1ccccc1OCC(F)(F)F
Return: 13.3

----------
- test_summary: Study SI07004: silodosin pharmacokinetics after seven daily doses of 4 mg or 8 mg in healthy male subjects
- Format: in vivo, human
- experimental_context: male, human, plasma, 8 mg, after 7 days of dosing; read-out: Cmax, median
result_type: Cmax (ng/mL)
One number for each entry, in ng/mL.

Enquiry: Query: Cmax; subject: C[C@H](Cc1cc2c(c(C(N)=O)c1)N(CCCO)CC2)NCCOc1ccccc1OCC(F)(F)F [silodosin]
Return: 50.3

----------
- test_summary: Study SI07004: silodosin pharmacokinetics after seven daily doses of 4 mg or 8 mg in healthy male subjects
- Type: in vivo, human
- experimental_context: male, human, plasma, 4 mg, after 7 days of dosing, n 19; read-out: t½, mean (converted)
result_type: half-life

Enquiry: Query: half-life; subject: C[C@H](Cc1cc2c(c(C(N)=O)c1)N(CCCO)CC2)NCCOc1ccccc1OCC(F)(F)F
Return: 15.3 h

----------
- test_summary: Study SI07004: silodosin pharmacokinetics after seven daily doses of 4 mg or 8 mg in healthy male subjects
- Format: in vivo, human
- experimental_context: male, human, plasma, 4 mg, after 7 days of dosing; read-out: AUC [0-24], median
result_type: AUC(0-t) (ng·h/mL)
Numbers only, in ng·h/mL.

Enquiry: Query: AUC(0-t); subject: C[C@H](Cc1cc2c(c(C(N)=O)c1)N(CCCO)CC2)NCCOc1ccccc1OCC(F)(F)F
Return: 156

----------
- test_summary: Study SI07004: silodosin pharmacokinetics after seven daily doses of 4 mg or 8 mg in healthy male subjects
- Format: in vivo, human
- experimental_context: male, human, plasma, 8 mg, after 7 days of dosing, n 21; read-out: t½, mean (converted)
result_type: half-life

Enquiry: Query: half-life; subject: C[C@H](Cc1cc2c(c(C(N)=O)c1)N(CCCO)CC2)NCCOc1ccccc1OCC(F)(F)F [silodosin]
Return: 14.4 h

----------
- test_summary: Study SI07004: silodosin pharmacokinetics after seven daily doses of 4 mg or 8 mg in healthy male subjects
- Format: in vivo, human
- experimental_context: male, human, plasma, 8 mg, after 7 days of dosing; read-out: Tmax, mean
result_type: Tmax (h)
Answers are plain numbers, in h.

Enquiry: Query: Tmax; subject: C[C@H](Cc1cc2c(c(C(N)=O)c1)N(CCCO)CC2)NCCOc1ccccc1OCC(F)(F)F [silodosin]
Return: 2.5

----------
- test_summary: Study SI07004: silodosin pharmacokinetics after seven daily doses of 4 mg or 8 mg in healthy male subjects
- Format: in vivo, human
- experimental_context: male, human, plasma, 8 mg, after 7 days of dosing, N = 22; read-out: AUC [0-24], mean
result_type: AUC(0-t)
Units required after the number.

Enquiry: Query: AUC(0-t); subject: C[C@H](Cc1cc2c(c(C(N)=O)c1)N(CCCO)CC2)NCCOc1ccccc1OCC(F)(F)F
Return: 297 ng·h/mL
